Catalogue of compounds with associated Disease Control Rating at 20 ppm
# Test system: Botrytis cinerea
# test-description: Eggplant grey mold
# Assay type: in vivo
# Parameters: scale not given here
# test-settings: eggplant sprayed with 20 ppm, inoculated 24 h later, rated after 3-4 days

{"compound": "Cc1cccc(NC(=O)c2cn(C)nc2C(F)(F)F)c1C1CCCCC1 [Example 19]", "Disease Control Rating at 20 ppm": 1}
{"compound": "Cc1ccc(OC2CCCCC2)c(NC(=O)c2cn(C)nc2C(F)(F)F)c1 [Example 97]", "Disease Control Rating at 20 ppm": 0}
{"compound": "Cn1cc(C(=O)Nc2ccccc2C2=CCCC2(C)C)c(C(F)F)n1 [Example 122]", "Disease Control Rating at 20 ppm": 1}
{"compound": "Cc1nn(C)c(C)c1C(=O)Nc1ccccc1C1CCCCCC1 [Example 66]", "Disease Control Rating at 20 ppm": 0}
{"compound": "CCC1CC=C(c2ccccc2NC(=O)c2cn(C)nc2C(F)F)CC1 (stereo not drawn) [Example 125]", "Disease Control Rating at 20 ppm": 2}
{"compound": "Cc1ccc(NC(=O)c2cn(C)nc2C(F)F)c(C2CCCCC2)c1 [Example 28]", "Disease Control Rating at 20 ppm": 0}
{"compound": "CC(=C1CCCC1)c1ccccc1NC(=O)c1cn(C)nc1C(F)(F)F [Example 33]", "Disease Control Rating at 20 ppm": 1}
{"compound": "CC1=C(c2ccccc2NC(=O)c2cn(C)nc2C(F)(F)F)CCC1 [Example 137]", "Disease Control Rating at 20 ppm": 1}
{"compound": "Cc1c(C(=O)Nc2ccccc2C2CCCCCC2)c(Cl)nn1C [Example 105]", "Disease Control Rating at 20 ppm": 0}
{"compound": "COc1ccc(C2CCCCCCC2)c(NC(=O)c2cn(C)nc2C(F)(F)F)c1 [Example 38]", "Disease Control Rating at 20 ppm": 0}
{"compound": "Cn1cc(C(=O)Nc2ccccc2C=C2CCCCCC2)c(C(F)F)n1 [Example 147]", "Disease Control Rating at 20 ppm": 0}
{"compound": "Cn1cc(C(=O)Nc2cc(Cl)ccc2C2CCCCC2)c(C(F)F)n1 [Example 93]", "Disease Control Rating at 20 ppm": 0}
{"compound": "Cn1cc(C(=O)Nc2ccccc2C2(C)CCCC2)c(C(F)(F)F)n1 [Example 67]", "Disease Control Rating at 20 ppm": 0}
{"compound": "Cn1cc(C(=O)Nc2ccccc2C2CCCCC2)c([N+](=O)[O-])n1 [Example 62]", "Disease Control Rating at 20 ppm": 0}
{"compound": "Cn1cc(C(=O)Nc2ccccc2C2CCCC2)c(C(F)(F)Cl)n1 [Example 90]", "Disease Control Rating at 20 ppm": 0}
{"compound": "Cn1cc(C(=O)Nc2ccccc2C2=CCSCC2)c(C(F)F)n1 [Example 144]", "Disease Control Rating at 20 ppm": 0}
{"compound": "Cn1cc(C(=O)Nc2ccccc2[C@@H]2C[C@H]3CC[C@@H]2C3)c(I)n1 (relative stereo) [Example 58]", "Disease Control Rating at 20 ppm": 0}
{"compound": "Cc1cccc(NC(=O)c2cn(C)nc2C(F)F)c1C1CCCCC1 [Example 20]", "Disease Control Rating at 20 ppm": 1}
{"compound": "Cn1cc(C(=O)Nc2cc(Br)cc(Br)c2C2CCCCC2)c(C(F)(F)F)n1 [Example 136]", "Disease Control Rating at 20 ppm": 0}
{"compound": "CCC1CCCC(C)=C1c1ccccc1NC(=O)c1cn(C)nc1C(F)(F)F (stereo not drawn) [Example 138]", "Disease Control Rating at 20 ppm": 0}
{"compound": "CC1CC=C(c2ccccc2NC(=O)c2cn(C)nc2C(F)F)C1 (stereo not drawn) [Example 149]", "Disease Control Rating at 20 ppm": 0}
{"compound": "Cn1cc(C(=O)Nc2ccccc2CC2CCCCCC2)c(C(F)F)n1 [Example 145]", "Disease Control Rating at 20 ppm": 0}
{"compound": "C[C@@H]1CCC[C@H](C)[C@@H]1Oc1ccccc1NC(=O)c1cn(C)nc1C(F)(F)F [Example 74]", "Disease Control Rating at 20 ppm": 0}
{"compound": "Cn1cc(C(=O)Nc2ccccc2CC2CCCCC2)c(C(F)(F)F)n1 [Example 130]", "Disease Control Rating at 20 ppm": 0}
{"compound": "Cn1cc(C(=O)Nc2ccccc2[C@@H]2C[C@H]3CC[C@@H]2C3)c(C(F)(F)F)n1 (relative stereo) [Example 27]", "Disease Control Rating at 20 ppm": 0}
{"compound": "Cn1nc(C(F)(F)F)c(C(=O)Nc2ccccc2C2CCCCC2)c1F [Example 84]", "Disease Control Rating at 20 ppm": 0}
{"compound": "Cn1cc(C(=O)Nc2ccccc2C2CCCCC2)c(C(F)F)n1 [Example 1]", "Disease Control Rating at 20 ppm": 3}
{"compound": "Cn1nc(C(F)F)c(C(=O)Nc2ccccc2C2CCCCCC2)c1Cl [Example 114]", "Disease Control Rating at 20 ppm": 0}
{"compound": "O=C(Nc1ccccc1C1CCCCC1)c1c[nH]nc1C(F)F [Example 15]", "Disease Control Rating at 20 ppm": 2}
{"compound": "Cn1cc(C(=O)Nc2ccccc2C2CCCC2)c(Br)n1 [Example 64]", "Disease Control Rating at 20 ppm": 1}
{"compound": "Cn1cc(C(=O)Nc2ccccc2C2=CC(C)(C)CC(C)(C)C2)c(C(F)F)n1 [Example 121]", "Disease Control Rating at 20 ppm": 0}
{"compound": "Cn1cc(C(=O)Nc2ccccc2C2CCC(C(C)(C)C)CC2)c(C(F)(F)F)n1 (stereo not drawn) [Example 135]", "Disease Control Rating at 20 ppm": 1}
{"compound": "Cc1cc(C)c(C2CCCC2)c(NC(=O)c2cn(C)nc2C(F)(F)F)c1 [Example 31]", "Disease Control Rating at 20 ppm": 0}
{"compound": "Cn1cc(C(=O)Nc2ccccc2C2CCCCC2)c(C#N)n1 [Example 4]", "Disease Control Rating at 20 ppm": 1}
{"compound": "Cn1cc(C(=O)Nc2ccccc2CC2CCCC2)c(C(F)(F)F)n1 [Example 142]", "Disease Control Rating at 20 ppm": 0}
{"compound": "Cn1cc(C(=O)Nc2ccccc2C2=CCCCC2)c(C(F)(F)F)n1 [Example 110]", "Disease Control Rating at 20 ppm": 1}

Provenance of the data: patent US5223526A
